tested on: SNB-19 CNS; test: NCI-60 one-dose screen, 48 h (100 = growth as untreated, 0 = no growth, -100 = all killed); details: 10 µM unless noted
The panel holds about 83,000 compounds, 20% with a hit somewhere; the sample as a whole holds those more often.
Use 70% as the dividing line for growth, with the line itself on the T side and lower values as F.

input_smiles: CN(C)CCCn1c2c(c3ccc(-c4ccn[nH]4)cc3c1=O)C(=O)c1ccccc1-2
answer_label: F

input_smiles: COc1cccc(NC(=O)c2cccc(-c3cc(=O)c4c(OC)c(OC)c(OC)cc4o3)c2)c1
answer_label: T

input_smiles: C1=C2CNCC3=Cc4ccc5ccccc5c4OC23Oc2c1ccc1ccccc21
answer_label: F

input_smiles: CN1CCN(C(=O)[C@]2(C)CC[C@]3(C)CC[C@]4(C)C(=CC(=O)[C@@H]5[C@@]6(C)CCC(=O)NC(C)(C)[C@@H]6CC[C@]54C)[C@@H]3C2)CC1
answer_label: T

input_smiles: O=S(=O)(NCCNc1nccc(-c2c(-c3cccc(F)c3)nc3occn23)n1)c1cccc2ccccc12
answer_label: F

input_smiles: O=C1Nc2c(ccc(Cl)c2Cl)/C1=C/c1ccc(F)cc1
answer_label: T

input_smiles: C#CCn1cc(C=C2C(=O)NC(=S)NC2=O)c2cc(Cl)ccc21
answer_label: F

input_smiles: CCCCCOc1ccc(/C=N/Nc2cc(C)nc3ccc(Br)cc23)cc1
answer_label: F

input_smiles: Cc1ccccc1-c1cc(Cc2ccc(F)cc2)c(=O)[nH]n1
answer_label: T

input_smiles: COc1cc(COC(=O)CCCCC[P+](c2ccccc2)(c2ccccc2)c2ccccc2)c(OC)c2c1OCO2
answer_label: F

input_smiles: FC(F)(F)c1cccc(Nc2ccccc2)c1
answer_label: T

input_smiles: C[C@H]1[C@H](C)CC[C@]2(CO)CC[C@]3(C)C(=CC[C@@H]4[C@@]5(C)CCCNC(C)(C)[C@@H]5CC[C@]43C)[C@H]12
answer_label: F

input_smiles: COc1ccc(-c2nc3sccn3c2/C=C/C(=O)c2cc(OC)c(OC)c(OC)c2)cc1
answer_label: F

input_smiles: COc1ccc(C(=O)c2cc3c(N)c(C(=O)Nc4cccc(Br)c4C)sc3nc2C)cc1
answer_label: F

input_smiles: c1ccc2c(-c3c4ccsc4cc4[nH]c5ccccc5c34)c[nH]c2c1
answer_label: F

input_smiles: CCCCCCCCCCCCCCCC(=O)OC[C@@]1(O)C[C@@]23CC[C@@H]4C(C)(C)CCC[C@@]4(C)[C@@H]2CC[C@H]1C3
answer_label: T

input_smiles: CCCCCCCCCCN=C(N)N=C(N)N
answer_label: F

input_smiles: FCc1nc2nc(Cl)c(Cl)nc2[nH]1
answer_label: T
